- tested on: Pantothenate synthetase (Mycobacterium tuberculosis (strain ATCC 25618 / H37Rv)) (UniProt P9WIL5)
- Sequence (P9WIL5 whole entry, looked up): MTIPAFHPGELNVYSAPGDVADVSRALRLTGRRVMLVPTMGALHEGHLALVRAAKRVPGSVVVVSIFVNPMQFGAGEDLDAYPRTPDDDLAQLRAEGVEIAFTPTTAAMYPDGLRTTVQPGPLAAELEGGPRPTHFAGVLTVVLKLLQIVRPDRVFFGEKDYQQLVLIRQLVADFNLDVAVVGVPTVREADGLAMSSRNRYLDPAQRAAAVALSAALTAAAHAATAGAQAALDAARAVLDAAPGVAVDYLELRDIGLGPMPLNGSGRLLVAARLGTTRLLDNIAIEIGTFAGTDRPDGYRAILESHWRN
- measurement notes: Coupled enzyme confirmation of inhibitors against recombinant Mtb PanC (AID 375);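 further: 0% = full reaction with vehicle and 100% = no enzyme background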
- measurement context: coupled enzyme assay; at 10 µM, active compounds read high
readout kind: inhibition (%)

INSERT INTO measurements (compound, readout_kind, assay_value) VALUES
  ('CN1[C@@H]2CC[C@H]1CC(OC(=O)C1C=Nc3ccccc31)C2 (some centres undefined)', 'inhibition', 4),
  ('Cc1ccc(OC(=O)CCc2c(C)nc3ncnn3c2C)cc1', 'inhibition', 0),
  ('COc1ccc(-c2cn3c(C)c(C(=O)Nc4cc(NC(C)=O)ccc4OC)sc3n2)cc1', 'inhibition', 4),
  ('CCn1ncc(C2=NOC(C(=O)Nc3ccc4c(c3)OCO4)C2)c1C (centres undefined)', 'inhibition', 0),
  ('Cc1cc(C)c(C(=O)CSc2nnc(-c3ccccc3Br)o2)cc1C', 'inhibition', 2),
  ('Cc1cc(O)c(C2(C(F)(F)F)NCCNC2=O)cc1C (centres undefined)', 'inhibition', 5),
  ('CCOc1ccccc1NC(=O)C1CCCN1C(=O)OCc1ccccc1 (centres undefined)', 'inhibition', 0),
  ('Cc1ccc(C)c(OCC(O)CN2C(C)CCCC2C)c1 (centres undefined)', 'inhibition', 0),
  ('C/C(=N\O)C(=O)NCc1ccccn1', 'inhibition', 4),
  ('CCn1c(SCc2cc(=O)[nH]c3ccccc23)nc2c1c(=O)n(C)c(=O)n2C', 'inhibition', 5),
  ('O=C(Nc1nccs1)NC(C(F)(F)F)C(F)(F)F', 'inhibition', 7),
  ('COc1ccc(OC)c([C@@H](O)[C@H](C)NC(C)(C)C)c1', 'inhibition', 6),
  ('CCOc1cccc(-n2nnnc2-c2ccc(OC)cc2)c1', 'inhibition', 9),
  ('COc1cc(C2c3c(n[nH]c3C)C(=O)N2c2ccc(Br)cc2)ccc1O (centres undefined)', 'inhibition', 4),
  ('C[C@H]1CCC/C=C/C2C[C@H](O)CC2[C@H](O)/C=C/C(=O)O1 (some centres undefined)', 'inhibition', 0),
  ('CCC(NC(C)C)C(O)c1ccc(O)c(O)c1 (centres undefined)', 'inhibition', 0),
  ('CCOC(=O)N1CCN(Cc2cc(=O)oc3ccc4ccccc4c23)CC1', 'inhibition', 6),
  ('O=C(CSc1ncn[nH]1)NC1CC2CCC1C2 (centres undefined)', 'inhibition', 0),
  ('CC(=O)N(c1ccc(Br)cc1)C1C=CS(=O)(=O)C1 (centres undefined)', 'inhibition', 2),
  ('CS(=O)(=O)N(Cc1ccco1)CC(O)Cn1c2ccccc2c2ccccc21 (centres undefined)', 'inhibition', 0),
  ('COCCCNC(=O)c1ccccc1NS(=O)(=O)c1ccc(C)cc1', 'inhibition', 1),
  ('CS(=O)(=O)N(CC(=O)O)c1cccc(Cl)c1', 'inhibition', 3),
  ('Cc1nc2sc(C(c3cccc(F)c3)N3CCOCC3)c(O)n2n1 (centres undefined)', 'inhibition', 0),
  ('Clc1ccc(Nc2ncnc3c2cnn3-c2ccccc2)cc1', 'inhibition', 6);

----------
- tested on: Pantothenate synthetase (Mycobacterium tuberculosis (strain ATCC 25618 / H37Rv)) (UniProt P9WIL5)
- measurement notes: Coupled enzyme confirmation of inhibitors against recombinant Mtb PanC (AID 375);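 further: 0% = full reaction with vehicle and 100% = no enzyme background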
- measurement context: coupled enzyme assay; at 10 µM, active compounds read high
Outcome label depends on inhibition relative to 2%: at/above gives satisfied, below gives not satisfied.

INSERT INTO measurements (compound, label) VALUES
  ('CCOC(=O)Cc1nnc2c(Nc3ccc(C)cc3)nc3nonc3n12', 'not satisfied'),
  ('CCOC(=O)N1CCN(C(=O)c2ccc3c(=O)n(Cc4ccc(OC)cc4)c(=S)[nH]c3c2)CC1', 'satisfied'),
  ('CCOC(=O)c1cccc(NC(=O)CSc2nc3cccnc3n2C)c1', 'not satisfied'),
  ('Cc1cc(C(F)(F)F)nn1Cc1ccc(C(=O)NCc2ccco2)o1', 'not satisfied'),
  ('CC(Sc1nnc(-c2cc3ccccc3o2)n1-c1ccccc1)C(=O)O (configuration not stated)', 'satisfied'),
  ('O=C(COC(=O)c1cnccn1)c1ccc(OC(=O)c2ccccc2)cc1', 'not satisfied'),
  ('Cc1nc2ccc(NC(=O)N3CCC(c4ccccc4)C3)cc2nc1C (configuration not stated)', 'not satisfied'),
  ('CN1C(=O)C2(NCCc3c2[nH]c2ccccc32)c2ccccc21 (configuration not stated)', 'not satisfied'),
  ('CCN1CCN(c2ncc(C(=O)N3CCN(c4ccccc4OC)CC3)c3ccccc23)CC1', 'satisfied'),
  ('Brc1ccc2[nH]ncc2c1', 'satisfied'),
  ('COC(=O)C1(C(F)(F)F)N=C2Sc3ccccc3N2C(N2CCOCC2)=N1 (configuration not stated)', 'not satisfied'),
  ('O=C(NCC(=O)N(c1cnc2ccccc2c1)C(C(=O)NC1CCCC1)c1ccncc1)c1ccco1 (configuration not stated)', 'not satisfied'),
  ('Cc1cc(C(=O)OCC(=O)N2c3ccccc3CC2C)c(C)o1 (configuration not stated)', 'satisfied'),
  ('CC(C)(C)C(O)C(Oc1ccc(Cl)cc1)n1cncn1 (configuration not stated)', 'satisfied'),
  ('O=C(CS(=O)(=O)c1cn(Cc2ccc(Cl)cc2)c2ccccc12)N1CCCC1', 'satisfied'),
  ('O=C(NCc1ccco1)C1CCN(c2ccc(N3CCOCC3)nn2)CC1', 'not satisfied'),
  ('Cc1cc(C)n(-c2nc(C)nc3sc4c(c23)CCC(C)C4)n1 (configuration not stated)', 'not satisfied'),
  ('Cc1cccc2cc(CN(Cc3nnnn3C3CCCC3)C3CCCCC3)c(=O)[nH]c12', 'satisfied');

Values compiled from PubChem BioAssay.
